System: Bacteria
runDescription: Inhibition of bacterial CDP-ME kinase assessed as ATP depletion up to 57 uM measured by bioluminescent kinase Glo assay
appliedConditions: dose microM <=57
Calls of active or inactive are those of the source. No rule for the calls is given here.
experimentalReadout: inhibition

Take a look at these entries with their results.
O=C1CCCC2=C1C(c1ccccc1C(F)(F)F)N=C(Nc1nc3ccccc3o1)N2 (stereo unspecified) :: inactive
CC1=C(C(=O)Nc2ccc(C)cc2)C(c2ccccc2Br)N=C(Nc2nc3ccccc3o2)N1 (stereo unspecified) :: inactive
O=C1CCCC2=C1C(c1ccccc1)N=C(Nc1nc3ccccc3o1)N2 (stereo unspecified) :: inactive
Cc1cccc(C2N=C(Nc3nc4ccccc4o3)NC3=C2C(=O)CCC3)c1 (stereo unspecified) :: inactive
O=C1CCCC2=C1C(c1ccccc1Cl)N=C(Nc1nc3ccccc3o1)N2 (stereo unspecified) :: inactive

Each of the following entries comes with a recorded value; kindly state inhibition for each.
1. O=C1CCCC2=C1C1(CCCOC1)N=C(Nc1nc3ccccc3o1)N2 (stereo unspecified)
2. CC1(C)CC(=O)C2=C(C1)NC(Nc1nc3ccccc3o1)=NC21CCCCC1
3. O=C1CCCC2=C1C(c1ncccc1C(F)(F)F)N=C(Nc1nc3ccccc3o1)N2 (stereo unspecified)

Result:
["inactive", "inactive", "inactive"]
